System: mice
methodNotes: Neuropharmacological assay (SmartCube), behavioral signature of compound-treated mice
Assay type: in vivo
conditionDescription: i.p. 15 min before behavioral test, most efficacious dose(s) of 3 doses
quantityMeasured: AX: anxiolytic (probability that behavioral signature matches class)

Below are worked cases with known answers.
>  <molecule>
c1ccc2c(c1)CCO[C@H]2[C@H]1CCN1 [Compound I-82, (R)-2-((R)-isochroman-1-yl)azetidine]

>  <systemTested>
mice

>  <measuredValue>
++ (5% ≤ ++ <25%)

$$$$
>  <molecule>
FC1(F)CN[C@H]([C@H]2OCCc3ccccc32)C1 [Compound I-63]

>  <systemTested>
mice

>  <measuredValue>
+ (LOQ ≤ + <5%)

$$$$
>  <molecule>
c1ccc2c(c1)CCO[C@@H]2[C@@H]1CCCN1 [Compound I-17, (S)-2-((S)-isochroman-1-yl)pyrrolidine]

>  <systemTested>
mice

>  <measuredValue>
++ (5% ≤ ++ <25%)

$$$$
>  <molecule>
Fc1ccc2c(c1)[C@H](F)CO[C@H]2[C@@H]1CCN1 [Compound I-135]

>  <systemTested>
mice

>  <measuredValue>
++ (5% ≤ ++ <25%)

$$$$
>  <molecule>
c1ccc2c(c1)CCO[C@H]2[C@@H]1CCN1 [Compound I-80, (S)-2-((R)-iso-chroman-1-yl)azetidine]

>  <systemTested>
mice

>  <measuredValue>
++ (5% ≤ ++ <25%)

$$$$
>  <molecule>
Clc1ccc2c(c1)[C@@H]([C@H]1CCCN1)OCC2 [Compound I-32]

>  <systemTested>
mice

>  <measuredValue>
++ (5% ≤ ++ <25%)

$$$$
>  <molecule>
Cc1ccc2c(c1)[C@H]([C@@H]1CCCN1)OCC2 [Compound I-25]

>  <systemTested>
mice

>  <measuredValue>
++ (5% ≤ ++ <25%)

$$$$
>  <molecule>
Fc1ccc2c(c1)CCO[C@@H]2[C@@H]1CCN1 [Compound I-89]

>  <systemTested>
mice

>  <measuredValue>
++ (5% ≤ ++ <25%)

$$$$

Challenge: mice / AX: anxiolytic (probability that behavioral signature matches class) / C[C@@]1([C@H]2CCCN2)OCc2cc(F)ccc21 [Compound I-124] : value?
Response given: + (LOQ ≤ + <5%)
